Reported inhibition values follow for various compounds
biological target: Hexose transporter 1 (Plasmodium falciparum) (UniProt O97467); assay: ST_JUDE_LEISH: Cytotoxicity at 2uM final concentration against transgenic Leishmania Mexicana promastigotes LmPfHT that are glucose transport deficient and complemented with the Plasmodium falciparum hexose transporter. Activity is measured by DNA content using SYBR green in vitro; assay type: functional
The reply should contain only the number, in %.

Ask: For O=C(Nc1cccc(-c2ccc(-c3nc4cc(C(F)(F)F)ccc4[nH]3)cc2)c1)c1ccoc1 , what is its reported inhibition?
Reply: 1.44

Ask: For CCc1ccc(NC(=O)C=NNC(=N)N)cc1 , what is its reported inhibition?
Reply: 1.46

Ask: For COc1ccc(-c2ccccc2CNC2Cc3ccccc3C2)cc1S(=O)(=O)NCCN1CCCC1 , what is its reported inhibition?
Reply: 0.5

Ask: For CCN(CC)CCN(Cc1ccc(-c2ccc(C(F)(F)F)cc2)cc1)C(=O)Cn1c(SCc2ccc(F)c(F)c2F)nc(=O)c2c1CCC2 , what is its reported inhibition?
Reply: 4.02

Ask: For Cc1ccnc(-n2c(C)cc(C=C3SC(=Nc4ccccc4)N(Cc4ccco4)C3=O)c2C)c1 , what is its reported inhibition?
Reply: 2.85

Origin of values: ChEMBL document CHEMBL3433997
